- target.or.test.system: Human Recombinant Matriptase 2 (Homo sapiens, UniProt Q8IU80)
- Construct: purchased Enzo Life Sciences (an in-house preparation was also used) ALX-201-752-1
- run.description: Matriptase 2 fluorescence based inhibition assay, Method A (100 mM TRIS pH 9, 1 mg/mL BSA)
- Type: biochemical
- experimental.conditions: 1 uM; Assay Used A; read-out: Mar-2 % inhibition at 1 uM
reported.metric: inhibition at 1 µM

molecule: N=C(N)c1ccc2cc(C(=O)Nc3cccc(N4CCSCC4)c3)n(Cc3ccc(C(N)=O)cc3)c2c1 [Compound I-133]
inhibition at 1 µM: 0 to 25%

molecule: N=C(N)c1ccc2cc(C(=O)NCc3ccccc3)n(Cc3ccc(C(N)=O)cc3)c2c1 [Compound I-77]
inhibition at 1 µM: 0 to 25%

molecule: N=C(N)c1ccc2cc(C(=O)NCC3CCCCC3)n(Cc3ccc(C(N)=O)cc3)c2c1 [Compound I-191]
inhibition at 1 µM: 0 to 25%

Now for the molecule whose inhibition at 1 µM we want.
*Q* Item: CC(C)(NC(=O)c1cc2ccc(C(=N)N)cc2n1Cc1ccc(C(N)=O)cc1)c1ccc(Cl)cc1 [Compound I-109] Test system: Human Recombinant Matriptase 2 (Homo sapiens, UniProt Q8IU80) Read-out: inhibition at 1 µM Value: ?
*A* 0 to 25%

====

- target.or.test.system: Human Recombinant Matriptase 2 (Homo sapiens, UniProt Q8IU80)
- Construct: purchased Enzo Life Sciences (an in-house preparation was also used) ALX-201-752-1
- run.description: Matriptase 2 fluorescence based inhibition assay, Method B (50 mM TRIS pH 7.5, 150 mM NaCl, 0.01% gelatin)
- Assay type: biochemical
- experimental.conditions: compound at 1 uM; Assay Used: B; read-out: Mar-2 % inhibition at 1 uM
reported.metric: inhibition at 1 µM

Worked cases, inhibition at 1 µM given:
compound: CN(C)CCCOc1ccc2c(Cn3c(C(=O)N[C@H]4CC[C@H](N)CC4)cc4ccc(C(=N)N)cc43)cccc2c1 [Compound I-804]
inhibition at 1 µM: 75 to 100%
--
compound: N=C(N)c1ccc2cc(C(=O)OC3CCCCC3)n(Cc3cccc4ccccc34)c2c1 [Compound I-811]
inhibition at 1 µM: 25 to 50%
--
compound: N=C(N)c1ccc2cc(C(=O)N[C@H]3CC[C@H](N)CC3)n(Cc3cc(Br)cc4ccccc34)c2c1 [Compound I-819]
inhibition at 1 µM: 75 to 100%
--
compound: C[C@@H](c1cccc2ccccc12)n1c(C(=O)N[C@H]2CC[C@H](N)CC2)cc2ccc(C(=N)N)cc21 [Compound I-805]
inhibition at 1 µM: 0 to 25%
--
compound: N=C(N)c1ccc2cc(C(=O)N[C@H]3CC[C@H](N)CC3)n(Cc3cc(C(=O)O)cc4ccccc34)c2c1 [Compound I-806]
inhibition at 1 µM: 50 to 75%
--
compound: N=C(N)c1ccc2cc(C(=O)N[C@H]3CC[C@H](N)CC3)n(Cc3ccc(CO)c4ccccc34)c2c1 [Compound I-824]
inhibition at 1 µM: 75 to 100%

*Q* Reported inhibition at 1 µM, compound COc1cccc2c(Cn3c(C(=O)N[C@H]4CC[C@H](N)CC4)cc4ccc(C(=N)N)cc43)cccc12 [Compound I-797] : ____
*A* 75 to 100%

====

- target.or.test.system: Human Recombinant Matriptase 2 (Homo sapiens, UniProt Q8IU80)
- Construct: purchased Enzo Life Sciences (an in-house preparation was also used) ALX-201-752-1
- Sequence (Q8IU80 1-811): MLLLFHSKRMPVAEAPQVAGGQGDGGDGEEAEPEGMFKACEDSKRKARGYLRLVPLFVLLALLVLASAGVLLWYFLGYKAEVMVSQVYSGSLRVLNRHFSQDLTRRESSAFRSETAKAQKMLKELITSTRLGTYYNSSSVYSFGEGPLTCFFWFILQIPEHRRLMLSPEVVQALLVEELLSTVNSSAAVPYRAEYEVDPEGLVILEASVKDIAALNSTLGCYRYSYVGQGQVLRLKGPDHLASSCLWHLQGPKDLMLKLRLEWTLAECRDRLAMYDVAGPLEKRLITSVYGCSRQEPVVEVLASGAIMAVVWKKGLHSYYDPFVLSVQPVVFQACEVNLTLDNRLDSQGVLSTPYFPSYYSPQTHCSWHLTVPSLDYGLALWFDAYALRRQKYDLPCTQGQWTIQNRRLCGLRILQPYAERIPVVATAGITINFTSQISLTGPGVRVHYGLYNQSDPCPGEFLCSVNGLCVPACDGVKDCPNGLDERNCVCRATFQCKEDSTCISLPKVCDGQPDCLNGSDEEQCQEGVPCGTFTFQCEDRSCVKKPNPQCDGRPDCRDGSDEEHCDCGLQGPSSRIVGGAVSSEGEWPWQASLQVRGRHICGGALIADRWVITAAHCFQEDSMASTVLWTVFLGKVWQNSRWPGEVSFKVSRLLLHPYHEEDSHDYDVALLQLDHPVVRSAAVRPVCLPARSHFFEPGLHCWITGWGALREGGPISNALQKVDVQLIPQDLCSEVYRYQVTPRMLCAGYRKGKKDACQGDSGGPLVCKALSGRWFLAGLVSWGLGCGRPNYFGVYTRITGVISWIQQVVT
- run.description: Matriptase 2 fluorescence based inhibition assay, Method A (100 mM TRIS pH 9, 1 mg/mL BSA)
- Type: biochemical
- experimental.conditions: 1 uM compound; Assay Used = A; read-out: Mar-2 % inhibition at 1 uM
reported.metric: inhibition at 1 µM

item.smiles: N=C(N)c1ccc2cc(C(=O)NCC3CCNCC3)n(Cc3ccc4ccccc4c3)c2c1
result: 25 to 50%

item.smiles: COc1ccc2cc(Cn3c(C(=O)N[C@H]4CC[C@H](N)CC4)cc4ccc(/C(N)=N\O)cc43)ccc2c1
result: 0 to 25%

*Q* Item: N=C(N)c1ccc2cc(C(=O)N[C@H]3CC[C@H](N)CC3)n(S(=O)(=O)c3ccc4ccccc4c3)c2c1 Test system: Human Recombinant Matriptase 2 (Homo sapiens, UniProt Q8IU80) Read-out: inhibition at 1 µM Value: ?
*A* 25 to 50%

*Q* Item: N/C(=N/O)c1ccc2cc(C(=O)N[C@H]3CC[C@H](N)CC3)n(Cc3cccc4ccccc34)c2c1 Test system: Human Recombinant Matriptase 2 (Homo sapiens, UniProt Q8IU80) Read-out: inhibition at 1 µM Value: ?
*A* 25 to 50%

*Q* Item: N/C(=N\O)c1ccc2cc(C(=O)NCC3CCNCC3)n(Cc3ccc4ccccc4c3)c2c1 Test system: Human Recombinant Matriptase 2 (Homo sapiens, UniProt Q8IU80) Read-out: inhibition at 1 µM Value: ?
*A* 0 to 25%

*Q* Item: N/C(=N\O)c1ccc2cc(C(=O)N[C@H]3CC[C@H](N)CC3)n(Cc3ccc4ccccc4c3)c2c1 Test system: Human Recombinant Matriptase 2 (Homo sapiens, UniProt Q8IU80) Read-out: inhibition at 1 µM Value: ?
*A* 0 to 25%

*Q* Item: COc1ccc2cc(Cn3c(C(=O)N[C@H]4CC[C@H](N)CC4)cc4ccc(C(=N)N)cc43)ccc2c1 Test system: Human Recombinant Matriptase 2 (Homo sapiens, UniProt Q8IU80) Read-out: inhibition at 1 µM Value: ?
*A* 50 to 75%

====

- target.or.test.system: Human Recombinant Matriptase 2 (Homo sapiens, UniProt Q8IU80)
- Construct: purchased Enzo Life Sciences (an in-house preparation was also used) ALX-201-752-1
- run.description: Matriptase 2 fluorescence based inhibition assay, Method A (100 mM TRIS pH 9, 1 mg/mL BSA)
- Type: biochemical
- experimental.conditions: at 1 uM; Assay Used = A; read-out: Mar-2 % inhibition at 1 uM
reported.metric: inhibition at 1 µM

Worked cases, inhibition at 1 µM given:
compound: N=C(N)c1ccc2cc(C(=O)N3CCC(CCN)CC3)n(Cc3ccc(Oc4ccc(F)cc4)nc3)c2c1 [Compound I-317]
inhibition at 1 µM: 25 to 50%

compound: N=C(N)c1ccc2cc(C(=O)N[C@H]3CC[C@H](N)CC3)n(Cc3ccc(Oc4ccc(F)cc4)nc3)c2c1 [Compound I-246]
inhibition at 1 µM: 50 to 75%

compound: CC1CCC(NC(=O)c2cc3ccc(C(=N)N)cc3n2Cc2ccc(C(=O)NCCN)cc2)CC1 (stereo not shown) [Compound I-224]
inhibition at 1 µM: 0 to 25%

*Q* Reported inhibition at 1 µM, compound N=C(N)c1ccc2cc(C(=O)N3CC[C@@H](F)C3)n(CCS(=O)(=O)c3ccccc3)c2c1 [Compound I-341] : ____
*A* 0 to 25%

*Q* Reported inhibition at 1 µM, compound NC(=O)c1ccc2cc(C(=O)N3CCc4ccccc4C3)n(Cc3ccc(-c4ccccc4)cc3)c2c1 [Compound I-394] : ____
*A* 0 to 25%

*Q* Reported inhibition at 1 µM, compound N=C(N)c1ccc2cc(C(=O)N[C@H]3CC[C@H](N)CC3)n(Cc3cccc(NC(=O)CCN)c3)c2c1 [Compound I-257] : ____
*A* 50 to 75%

*Q* Reported inhibition at 1 µM, compound CC1CCC(NC(=O)c2cc3ccc(C(=N)N)cc3n2Cc2ccc(C(=O)NCCO)cc2)CC1 (stereo not shown) [Compound I-223] : ____
*A* 0 to 25%
